Test: Metabolic stability in rat liver microsomes assessed as half life
Format: ADME, Microsome
property: half-life (min)

>  <compound>
Cc1cccc(N2CCC(C(=O)Nc3ccc4c(c3)NC(=O)CO4)CC2)c1C

>  <unitSymbol>
min

>  <half-life>
6.5

$$$$

A: O=C1COc2ccc(NC(=O)C3CCN(c4ccc(F)c(F)c4)CC3)cc2N1
B: O=C1COc2ccc(NC(=O)C3CCN(c4cccc(C(F)(F)F)c4)CC3)cc2N1
Which value of half-life is greater, the one for A or the one for B ? # respond with the chosen item's label
A
(A: 15.5 min, B: 2.8 min)

P: O=C(Nc1ccc2c(c1)NC(=O)C(CCO)O2)C1CCN(c2cc(F)c(F)c(F)c2)CC1 (centres undefined)
Q: O=C1COc2ccc(NC(=O)C3CCN(c4cccc(Cl)c4)CC3)cc2N1
Please indicate which has the smaller reported half-life: P , or Q . When you have decided, please share the label of that item.
Q

====

Assay: Metabolic stability in human liver microsomes assessed as half life
Format: ADME, Microsome
property: half-life (min)

>  <molecule>
O=C1COc2ccc(NC(=O)C3CCN(c4ccc(F)c(F)c4)CC3)cc2N1

>  <unitSymbol>
min

>  <half-life>
44.3

$$$$

A: O=C1COc2ccc(NC(=O)C3CCN(c4cccc(C(F)(F)F)c4)CC3)cc2N1
B: O=C1COc2ccc(NC(=O)C3CCN(c4cc(F)c(F)c(F)c4)CC3)cc2N1
Look at A and B . Which one has the lower recorded half-life number? Write down the label of the entry you select.
A

1: O=C(Nc1ccc2c(c1)NC(=O)C(CCO)O2)C1CCN(c2cc(F)c(F)c(F)c2)CC1 (centres undefined)
2: CC(C)c1ccccc1N1CCC(C(=O)Nc2ccc3c(c2)NC(=O)CO3)CC1
3: O=C1COc2ccc(NC(=O)C3CCN(c4cc(F)cc(F)c4)CC3)cc2N1
4: O=C1COc2ccc(NC(=O)C3CCN(c4cccc(Cl)c4)CC3)cc2N1
Ranking field: half-life; order: falling. Output spec: a listing of the labels in the requested order.
3, 1, 4, 2

====

pKi: −log10 of the molar value.
Quick record of pKi values for Transient receptor potential cation channel subfamily V member 1 (Homo sapiens).
property: pKi

Worked examples, 3 compounds total:
>  <cpdSmiles>
O=C1COc2ccc(NC(=O)C3CCN(c4ccccc4C(F)(F)F)CC3)cc2N1

>  <pKi>
7.17

$$$$
>  <cpdSmiles>
O=C1COc2ccc(NC(=O)C3CCN(c4cccc(Cl)c4)CC3)cc2N1

>  <pKi>
7.01

$$$$
>  <cpdSmiles>
Cc1c(Cl)cccc1N1CCC(C(=O)Nc2ccc3c(c2)NC(=O)CO3)CC1

>  <pKi>
7.00

$$$$

1: O=C1COc2ccc(NC(=O)C3CCN(c4cccc(F)c4Br)CC3)cc2N1
2: Cc1cccc(N2CCC(C(=O)Nc3ccc4c(c3)NC(=O)CO4)CC2)c1C
3: O=C1COc2ccc(NC(=O)C3CCN(c4cc(F)c(F)c(F)c4)CC3)cc2N1
4: CC(C)(C)c1ccc(N2CCC(C(=O)Nc3ccc4c(c3)NC(=O)CO4)CC2)cc1
Arrange by pKi, high to low. When ranking, write the labels in the order the request describes.
2, 3, 1, 4
(2: 7.55, 3: 7.31, 1: 7.09, 4: 6.85)

====

Experiment: Apparent permeability from apical to basolateral side of human Caco-2 cells
Assay type: ADME, cell-based
property: Papp A→B (×10⁻⁶ cm/s)
# value in ×10⁻⁶ cm/s; strip the unit string

Which Papp A→B is reported for this compound? O=C(Nc1ccc2c(c1)NC(=O)C(CCO)O2)C1CCN(c2cc(F)c(F)c(F)c2)CC1 (stereo unspecified)
1.5

====

Biological target: Cytochrome P450 3A4 (Homo sapiens, UniProt P08684)
Sequence (P08684 whole entry): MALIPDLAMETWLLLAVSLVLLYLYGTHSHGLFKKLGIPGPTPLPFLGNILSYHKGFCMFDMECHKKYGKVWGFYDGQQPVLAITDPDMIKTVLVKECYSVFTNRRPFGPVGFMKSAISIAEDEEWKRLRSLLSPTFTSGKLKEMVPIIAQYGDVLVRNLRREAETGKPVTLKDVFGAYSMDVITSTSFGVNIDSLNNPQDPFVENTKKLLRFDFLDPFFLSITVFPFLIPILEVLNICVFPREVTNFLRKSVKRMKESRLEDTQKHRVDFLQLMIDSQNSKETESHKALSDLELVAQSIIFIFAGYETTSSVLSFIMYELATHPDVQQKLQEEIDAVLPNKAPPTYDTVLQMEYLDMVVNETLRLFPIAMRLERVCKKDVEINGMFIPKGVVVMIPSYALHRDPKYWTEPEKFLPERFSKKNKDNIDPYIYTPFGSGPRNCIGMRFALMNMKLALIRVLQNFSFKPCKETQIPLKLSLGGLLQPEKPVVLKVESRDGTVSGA
Assay: Inhibition of recombinant CYP3A4
property: IC50 (µM)
Lab book: enter the figure in µM, no units written.

I am curious: what IC50 value has been reported for O=C(Nc1ccc2c(c1)NC(=O)C(CCO)O2)C1CCN(c2cc(F)c(F)c(F)c2)CC1 (stereo unspecified) ?
3.7

====

Target: UniProtKB Q8NER1
Test: Antagonist activity at human TRPV1 receptor assessed as inhibition of capsaicin-induced calcium flux by FLIPR
pIC50: −log10 of the molar value.
property: pIC50

P: O=C1COc2ccc(NC(=O)C3CCN(c4cccc(C(F)(F)F)c4)CC3)cc2N1
Q: O=C(Nc1ccc2c(c1)NC(=O)C(CCO)O2)C1CCN(c2cc(F)c(F)c(F)c2)CC1 (stereo unspecified)
R: O=C1COc2ccc(NC(=O)C3CCN(c4cc(F)c(F)c(F)c4)CC3)cc2N1
S: COC(=O)CC1Oc2ccc(NC(=O)C3CCN(c4cc(F)c(F)c(F)c4)CC3)cc2NC1=O (stereo unspecified)
Arrange the items listed above so that pIC50 rises from first to last. Answer format: the labels, ordered as requested.
S, P, R, Q

====

Experiment: Metabolic stability in rat liver microsomes assessed as half life
Assay type: ADME, Microsome
property: half-life (min)

>  <cpdSmiles>
O=C1COc2ccc(NC(=O)C3CCN(c4cccc(F)c4Br)CC3)cc2N1

>  <half-life, min>
7.2

$$$$

1: O=C1COc2ccc(NC(=O)C3CCN(c4cc(F)cc(F)c4)CC3)cc2N1
2: CC(C)c1ccccc1N1CCC(C(=O)Nc2ccc3c(c2)NC(=O)CO3)CC1
3: O=C1COc2ccc(NC(=O)C3CCN(c4cc(F)c(F)c(F)c4)CC3)cc2N1
Provide the items ranked by increasing half-life. // respond by listing labels in the order requested
2, 1, 3
(2: 9 min, 1: 19.4 min, 3: 63.8 min)
